# System: HepG2-A16-CD81 hepatocytes
# Protocol Description: cells
# Parameters: Uninfected hepatocyte viability, CellTiter-Glo luminescence
# Measurement Setup: sheet CDD Export 1;, cytotoxicity primary screen, read-out: Table S5. Liver stage reconfirmation data / HepG2 Cytotoxicity primary screen (2uM): % Inhibition
Can you tell me inhibition at 2 µM for the items I'm about to list?
Quick reminder: number only, in %, skip the unit.

Just so you know, measured inhibition at 2 µM for COc1cccc(CN2CCc3nc(C(=O)NCC(C)C)sc3CC2)c1 came out at -10.2

Just so you know, measured inhibition at 2 µM for COc1ccc(-c2cc(CNc3ncnc4c3CCNCC4)no2)cc1 came out at 4.02

Just so you know, measured inhibition at 2 µM for Fc1ccc(N2CCCN(c3ccc(Cn4ccnc4)cn3)CC2)cc1 came out at 3.83

Just so you know, measured inhibition at 2 µM for COc1cc(CNCc2ccnc(N3CCCCC3)c2)cc(OC)c1 came out at -2.79

Just so you know, measured inhibition at 2 µM for CC(C)(C)NC(=O)N1CCC(Oc2ccc(C(F)(F)F)cn2)CC1 came out at -4.73

Just so you know, measured inhibition at 2 µM for Cc1nc(C(=O)NC2CCN(CCOc3ccc(Br)cc3)CC2)cs1 came out at 17.6

Just so you know, measured inhibition at 2 µM for CC(Nc1ncnc2c1CCNC2)c1ccc2c(c1)CCCC2 (centres unmarked) came out at 0.573

Just so you know, measured inhibition at 2 µM for COC1CCN(c2ccc(NC(=O)C3CC3)cc2C(F)(F)F)CC1 came out at 12.4

Just so you know, measured inhibition at 2 µM for c1ccc(-c2ccc(C3CNCCO3)nc2)cc1 (centres unmarked) came out at 6.27

Just so you know, measured inhibition at 2 µM for N#Cc1c(Cl)nsc1NCC1(c2ccccc2)CCC1 came out at 12

Just so you know, measured inhibition at 2 µM for COc1cccc(CN2CCN(c3ccc4nncn4n3)C(C)C2)c1 (centres unmarked) came out at -7.2

Just so you know, measured inhibition at 2 µM for CC(C)N(CC(N)=O)Cc1csc(COc2ccc(F)cc2)n1 came out at 6.02

Just so you know, measured inhibition at 2 µM for COCCCNC1N=C(n2nc(C)cc2C)Nc2sc3c(c21)CCCC3 (centres unmarked) came out at 2.66

Just so you know, measured inhibition at 2 µM for CCc1ccc(-c2ncc3c(n2)N(C)CCN(CCN(C)C)C3=O)cc1 came out at 4.38

Just so you know, measured inhibition at 2 µM for N#Cc1c(Cl)nsc1NCc1cccnc1OCC(F)(F)F came out at 4.29

Just so you know, measured inhibition at 2 µM for Cc1ccc(Sc2ccc(CN3CCC4(CCCNC4=O)C3)o2)cc1 (centres unmarked) came out at -4.2

Just so you know, measured inhibition at 2 µM for CCNc1ccnc(CN2CCCC2C(=O)Nc2nccs2)c1 (centres unmarked) came out at 1.3

Just so you know, measured inhibition at 2 µM for Cc1cn2c(n1)C(CNCC1=Cc3ccccc3OC1)CCC2 (centres unmarked) came out at -0.92

Just so you know, measured inhibition at 2 µM for CC(=O)c1ccc(N2CCC(CO)(CCOc3ccccc3)CC2)nc1 came out at 17.5

Just so you know, measured inhibition at 2 µM for Cc1noc(NC(=O)c2ccc(Br)s2)n1 came out at 5.11

Just so you know, measured inhibition at 2 µM for Clc1ccccc1-c1cc(CNc2ncnc3c2CCNCC3)no1 came out at -1.07

Just so you know, measured inhibition at 2 µM for Cc1nc(N2CC[C@@H](NC(=O)c3cnccn3)[C@H](O)C2)c2ccsc2n1 came out at -14.6

Just so you know, measured inhibition at 2 µM for COc1cccc(CNc2cc(C)nc(-c3ccncc3)n2)c1OC came out at -4.44

* * *

# System: HepG2-A16-CD81 hepatocytes
# Protocol Description: HepG2 cytotoxicity screening (CellTiter-Glo)
# Measurement Setup: 12pt dose response, maximum inhibition
Can you tell me HepG2 cytotoxicity 12pt dose response: Maximum inhibition (%) for the items I'm about to list?
Quick reminder: number only, in %, skip the unit.

O=C(NCCCN1CCCCC1)c1ccc(-n2ccc3ccccc32)s1 on HepG2-A16-CD81 hepatocytes gives HepG2 cytotoxicity 12pt dose response: Maximum inhibition (%) = 66.1

Cc1cc(CN2CCN(C(c3ccccc3)c3ccccc3)CC2)no1 on HepG2-A16-CD81 hepatocytes gives HepG2 cytotoxicity 12pt dose response: Maximum inhibition (%) = 4.68

CCc1ccccc1OC1CN(C(=O)c2ccnc(OC)c2)C1 on HepG2-A16-CD81 hepatocytes gives HepG2 cytotoxicity 12pt dose response: Maximum inhibition (%) = 46.8

CC(=O)c1ccc(N2CCC(CO)(CCOc3ccccc3)CC2)nc1 on HepG2-A16-CD81 hepatocytes gives HepG2 cytotoxicity 12pt dose response: Maximum inhibition (%) = 60.3

CC(=O)Nc1nc(C(=O)N2CCCC(n3cncn3)C2)cs1 (centres unmarked) on HepG2-A16-CD81 hepatocytes gives HepG2 cytotoxicity 12pt dose response: Maximum inhibition (%) = -5.65

O=C(c1ccc(Br)o1)N1CCN(Cc2ccc(OC(F)(F)F)cc2)CC1 on HepG2-A16-CD81 hepatocytes gives HepG2 cytotoxicity 12pt dose response: Maximum inhibition (%) = 57.1

CCOc1ccc(S(=O)(=O)Nc2cnc(OC)nc2OC)cc1 on HepG2-A16-CD81 hepatocytes gives HepG2 cytotoxicity 12pt dose response: Maximum inhibition (%) = 61

O=c1c2sccc2nc2n1CCN(Cc1ccccc1C(F)(F)F)CC2 on HepG2-A16-CD81 hepatocytes gives HepG2 cytotoxicity 12pt dose response: Maximum inhibition (%) = 19.7

N#Cc1c(Cl)nsc1NCc1cccnc1OCC(F)(F)F on HepG2-A16-CD81 hepatocytes gives HepG2 cytotoxicity 12pt dose response: Maximum inhibition (%) = -0.683

Clc1ccc(-c2ccc(C3CNCCO3)nc2)cc1 (centres unmarked) on HepG2-A16-CD81 hepatocytes gives HepG2 cytotoxicity 12pt dose response: Maximum inhibition (%) = -1.02

Clc1ccccc1-c1cc(CNc2ncnc3c2CCNCC3)no1 on HepG2-A16-CD81 hepatocytes gives HepG2 cytotoxicity 12pt dose response: Maximum inhibition (%) = 49.9

Cc1ncc(CN2CCOC(c3ccc(-c4ccccc4F)cn3)C2)s1 (centres unmarked) on HepG2-A16-CD81 hepatocytes gives HepG2 cytotoxicity 12pt dose response: Maximum inhibition (%) = 36.5

Cc1ccc(Sc2ccc(CN3CCC4(CCCNC4=O)C3)o2)cc1 (centres unmarked) on HepG2-A16-CD81 hepatocytes gives HepG2 cytotoxicity 12pt dose response: Maximum inhibition (%) = 8.34

CC(C)(C)n1ncc2c1CCCC2NCc1ccc2c(c1)OCCO2 (centres unmarked) on HepG2-A16-CD81 hepatocytes gives HepG2 cytotoxicity 12pt dose response: Maximum inhibition (%) = 2.92

NC(=O)CCn1cc(CNCc2csc(N)n2)c2ccccc21 on HepG2-A16-CD81 hepatocytes gives HepG2 cytotoxicity 12pt dose response: Maximum inhibition (%) = 10.2

COc1ccc2cc(C3CN(C(=O)N(C)C)CCO3)ccc2c1 (centres unmarked) on HepG2-A16-CD81 hepatocytes gives HepG2 cytotoxicity 12pt dose response: Maximum inhibition (%) = 6.4

CC(C(=O)Nc1sccc1C(N)=O)N(C)CCOc1ccccc1 (centres unmarked) on HepG2-A16-CD81 hepatocytes gives HepG2 cytotoxicity 12pt dose response: Maximum inhibition (%) = 7.13

* * *

Can you tell me Emax for the items I'm about to list?
# Assay System: recombinant firefly luciferase (Photinus pyralis)
# Sequence (P08659 whole entry): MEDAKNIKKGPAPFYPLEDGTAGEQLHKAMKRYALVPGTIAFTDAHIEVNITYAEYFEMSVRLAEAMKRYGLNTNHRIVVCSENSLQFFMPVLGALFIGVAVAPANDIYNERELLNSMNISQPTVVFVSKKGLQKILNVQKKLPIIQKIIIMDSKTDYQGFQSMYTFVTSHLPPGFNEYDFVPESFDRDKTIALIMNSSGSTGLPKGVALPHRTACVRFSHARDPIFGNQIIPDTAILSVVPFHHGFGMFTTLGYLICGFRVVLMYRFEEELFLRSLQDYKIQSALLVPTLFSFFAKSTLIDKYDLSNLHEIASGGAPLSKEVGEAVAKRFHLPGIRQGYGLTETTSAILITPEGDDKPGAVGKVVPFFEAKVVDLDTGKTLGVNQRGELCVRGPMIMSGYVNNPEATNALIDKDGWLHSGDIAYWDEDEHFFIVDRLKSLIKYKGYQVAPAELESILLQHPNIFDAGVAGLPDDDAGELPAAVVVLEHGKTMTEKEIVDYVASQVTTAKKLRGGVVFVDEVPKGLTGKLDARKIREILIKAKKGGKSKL
# Protocol Description: biochemical
# Measurement Setup: dose response, maximum inhibition; read-out: rLuc inhibition dose response: Maximum inhibition (%)

Just so you know, measured Emax for COc1c(CNCc2ccc(C(=O)N(C)C(C)C)cc2)c(C)nn1C came out at -4.69%

Just so you know, measured Emax for CC(C)(C)NC(=O)N1CCC(Oc2ccc(C(F)(F)F)cn2)CC1 came out at 13%

Just so you know, measured Emax for CCCc1cncnc1N1CCC(NCc2cc3ccccc3[nH]2)CC1 came out at 31.4%

Just so you know, measured Emax for CCc1cccc(N2CCC(NC(=O)c3ccco3)CC2)c1 came out at 11.1%

Just so you know, measured Emax for CC(=O)Nc1ncc(S(=O)(=O)Nc2ccc3c(c2)OCCO3)s1 came out at 52.2%

Just so you know, measured Emax for O=C([C@H]1C[C@@H]2CCN(c3cccc(F)c3)C[C@H]2O1)N1CCCC1 came out at 28.4%

Just so you know, measured Emax for Cn1cnc2c1CCN(Cc1csc(-c3ccccc3F)n1)C2 came out at 81.2%

Just so you know, measured Emax for CCOc1ccc(S(=O)(=O)Nc2cnc(OC)nc2OC)cc1 came out at -1.04%

Just so you know, measured Emax for O=C(CN1CCCC(c2ccn[nH]2)C1)Nc1nc2c(s1)CCCC2 (stereo not shown) came out at 6.65%

Just so you know, measured Emax for CCc1nc(CN2CCCN(c3ncnc4ccccc34)CC2)no1 came out at 3.79%

Just so you know, measured Emax for CCC1=NC(SCC(=O)c2ccccc2)c2cc(CC)sc2N1 (stereo not shown) came out at 7.45%

Just so you know, measured Emax for Nc1nccc(N2CCCC(CO)(CCOc3ccccc3)C2)n1 (stereo not shown) came out at 8.22%

Just so you know, measured Emax for CCNc1ccnc(CN2CCCC2C(=O)Nc2nccs2)c1 (stereo not shown) came out at 21.2%

Just so you know, measured Emax for CCN1CC(CN(C)c2cc(C)nc(N)n2)Oc2ccccc21 (stereo not shown) came out at 15.4%

Just so you know, measured Emax for Fc1ccc(CN2CCCC(c3cc4ncccc4[nH]3)C2)cc1 (stereo not shown) came out at 23.6%

Just so you know, measured Emax for CC(C)c1n[nH]c(C(=O)Nc2ccccn2)c1Br came out at 97.1%

Just so you know, measured Emax for COc1cc(CNCc2ccnc(N3CCCCC3)c2)cc(OC)c1 came out at 1.69%

Just so you know, measured Emax for NC(=O)c1ccc(N2CCCCC2)c(NC(=O)c2ccc(F)cc2F)c1 came out at 19.1%

Just so you know, measured Emax for COC1CCN(c2ccc(NC(=O)C3CC3)cc2C(F)(F)F)CC1 came out at 16.4%
